system: W2 (chloroquin resistant) strain of P. falciparum; assay: in vitro antiplasmodial activity, W2 clone; type: cell-based, Plasmodium falciparum; conditions: W2 strain

compound | antiplasmodial activity (in words)
C=C1C(O)CC2[C@](C)(CCC[C@]2(C)C(=O)O)C1CC(=O)O (stereo partly shown) | inactive
C[C@@]12CC[C@@H](O)[C@]3(C)C(=O)O[C@H](C=C4COC(=O)C=C41)C23 (stereo partly shown) | inactive
C[C@]12CC[C@@H](O)[C@]3(C)C(=O)O[C@@H](C13)[C@H]1O[C@]13COC(=O)C=C32 (stereo partly shown) | inactive
C[C@@]12CC[C@@H](O)[C@]3(C)C4=CC(=O)OC[C@]45O[C@@H]5[C@@H](OC1=O)C23 (stereo partly shown) | inactive
